# tgt: fusion protein of the extracellular domain of the human inhibitory receptor CD200R fused to the Fc portion of human IgG1 (human) (UniProt Q8TD46)
# Sequence (Q8TD46 other isoform, or with tags, fused parts or gaps limits assumed, form in doubt): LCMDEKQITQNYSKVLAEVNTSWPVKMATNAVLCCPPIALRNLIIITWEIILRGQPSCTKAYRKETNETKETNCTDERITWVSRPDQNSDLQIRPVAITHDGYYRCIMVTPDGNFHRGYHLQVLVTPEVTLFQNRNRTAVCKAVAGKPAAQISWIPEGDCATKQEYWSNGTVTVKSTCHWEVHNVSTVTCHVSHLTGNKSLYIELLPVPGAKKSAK
# assay protocol: SPR (BIAcore 3000), fusion protein captured by anti-human Fc, antibody at 133 and 13.3 nM, bivalent analyte model
Kd listing for selected binders.
// return numeric value only (unit: nM, not printed)

Recorded Kd, per entry:
DX185, rat anti-human inhibitory CD200R monoclonal antibody (antibody, V domains shown) VH: EIQLQESGPGLVKPSQSFSLTCSVTGYTITSGYDWSWIRKFPGNRMEWMGYINYSGSTVYNPSLRSRFSITRDTSKNQFFLQLNSVASEDTATYYCAKFEASNTYLYDWYFDFWGPGTMVTVSS VL: DVQMTQSPSYLAASPGESVSISCKAGKNINTNLAWYQAKPGKTNKVLIHSGSTLQSGTPSRFSGSGFGTDFTLTIRSLEPEDFAVYYCQQHNEFPLTFGSGTKLEIKR = 0.202
DX184, rat anti-human inhibitory CD200R monoclonal antibody (antibody, V domains shown) VL: DIVMTQSPTFMSISVGDRVTMSCKASQNVGSNVDWYQQKTGQSPKLLIYKASNRYTGVPDRFTGSGSGTGFTFTITNLQAEDLAVYYCMQSLSFPYTSGAGT VH: QVQLKESGPGLVQPSQTLSLTCTVSGFSLTNNGVSWVRQPPGKGLEWIAAISSGGGTFYNSALKSRLSISRDTSKSQVFLKMNSLQTEDTAIYFCARDGDWDWYFDFWGPGTMVTVSS = 1.93

# context switch: different binder, same Kd
Ask | Consider the binder DX182, rat anti-human inhibitory CD200R monoclonal antibody (antibody, V domains shown) VL: EVQMTQSPSTLTASPGESVSINCKASKNIRSYLAWYQQKPGKPNKLLIYSGSTLHSGTPSRFSGSGFGTDFTLTIRNLEPEDFGLYYCQQHHEYPLTFGSGTKLEIKR VH: EIQLQESGPGLVKPSQSLSLTCSVTGYTITSGYDWSWIRKFPGNKMEWMGYINYGGSTNYKPSLGSRISITRDTSKNQFFLQLNSVSPEDTATYYCAKYNEYKSYIYDWYFDFWGPGTMVTVSS . State its measured Kd.
Reply | 0.024

Ref: patent US20100178296A1
